System: LXRa:RXRa (NR concentration 270 nM, RXRa partner concentration 90 nM)
Assay: PBM binding z-score (relative to random genomic background probes); higher = stronger binding; sequences stand for … in GC…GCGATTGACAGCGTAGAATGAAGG
Output: class label from PBM binding z-score. Mapping: A: < 0.9; B: ≥ 0.9 and < 3; C: ≥ 3

TAATATAGGTAATACAGGTGAAAGTCGGCATCTA B
ACTATTAGTTCAGACGAGGGCAACCGATAGGTTG B
AGAATGAGGGCAATGAGTTGATAGCACGGGTGGC A
CAAACTAGGTCAGCGGAAGGTCAAAGTCCGCATG C
ATAGCAAGGTGATCGTGAGGTCGTTGATACTAAC B
CGAACTAGGTCAATGACAGTGAATCTCCGCACGC B
ATCTCTAGGTAAAGTCCAGTGAAAGATCGATAGA A
CAAACTAGGGCACCGGAAGGTCAAAGTCCGCATG C
GCTTACGGGTCAAAGCTTATAGCATGAATAGAAT C
ATCGAAAGGTCGACGAGGTGAGTATTCACCGTTT C
ACTATTAGTCGAGACGAGGGCAACCGATAGGTTG A

---

This section presents sequences with their documented PBM binding z-score values.
System: PPARg DBDmut:RXRa IVT, anti-PPARg (DBD mutation: PPARg1 K132A/R137A, NR concentration 270 nM, RXRa partner concentration 90 nM)
Assay: PBM binding z-score (relative to random genomic background probes); higher = stronger binding; sequences stand for … in GC…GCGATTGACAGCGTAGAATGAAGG
measurement_type: PBM binding z-score

TGTCAAAGTTCAAAGGTAACATAAGTATCCACAC 1.53
AAGACAGGGTCACTAGGCCAGAGTAGGTACGAAT 0.632
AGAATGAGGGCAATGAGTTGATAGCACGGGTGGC 0.634
TGAATGAGGTTATAAGATCACGGAACGTTGCAAA 1.02
ATCGAAAGGTCGAGGTGTGTATAGAGAAAGGGAA 1.19
CCTCGGAGGACAACAGGAGGTCAGAGCAGCCAGA -0.931

---

Tested on: PPARg DBDmut IVT, anti-PPARg (DBD mutation: PPARg1 K132A/R137A, NR concentration 270 nM)
Experiment: PBM binding z-score (relative to random genomic background probes); higher = stronger binding; sequences stand for … in GC…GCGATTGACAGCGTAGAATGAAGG
Threshold rule: PBM binding z-score greater than or equal to 0.6 is class 1; below that, class 0.

TCATGTAGGTAAATGCTAGGTGAAAGTCCGATCT class 1
AGAATCAGGTTATACGTAGATCAGGGAAGAAAGT class 1
TAGCCTAGGTCATTCAGGTGCCAGTATAGAAAGC class 0
CCTAGTGGGCCAAAAAGGTCATTGATGCCGATAA class 0
ATATGTAGGTTAAGGGGCATTCAGGTTGGTTCGC class 1
CGTCCAAGATCAAAGGTCAGTGAAGAGATGACGG class 0
CGAACTAGTTCAGAACAGGACAGTGAAGGATGAT class 0
CGTCCAAGGTCAAAGTCAGTGAAAGAGACTCGAA class 0
TCATATAGGTAAACAGGTGAAGGTCCGTAAGTTA class 1
TCTTGTAGATCAAGCAGCTTAAGAAAGCCTGAGT class 0
TGAATGAAGTTATAAGATCAGGGAACGTTGCAAA class 0
CAAACTAGGTGACGAAAGGTCAAAGTCGAATGAC class 1
GGAACGAGGGCGTTCGAGTTGATAGCATGGCGAT class 0
CCTTACGGGTCACTGACAGGTTATAGCCTTTGGA class 0
GCTTATGGGTCAAAGGTTATAGCATGAATAGAAT class 1
TCATATAGGTAAAAGGTGGAAGTCGGTGTGGTAA class 1
CCTATTAGTTGACCATTAGGGCAACCGAAGCTCG class 1
CATACAGGGGCAGCTAGGCCAGAGTAGGGACGGC class 0
CGAACTAGGTCAGAACAAGACAGTGAAGGATGAT class 1
ACTCGGAGGCCAAAGGTCAGAGCTACGCCAGTGA class 0
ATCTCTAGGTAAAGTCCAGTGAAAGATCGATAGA class 1
ACTCGGAGGACAAAGGTCAGAGTTACGCCAGTGA class 0
TCTGCTAGGTAAGTTGGTCAGCTAACGAGCTGCC class 0
CCAGACAGGTGAAAGGTAACGCAGTCTGGTACGC class 0
CGAACTAGGTCAGAACTGGACAGTGAAGGATGAT class 1
ACTAGCCGGCCAAGGGTCACTCAAGATTAGTCCG class 0
AGAACGAGGGCACGCTGAGTTGAGAGCAGAGTAG class 0
CCTATTGGGCCAAAAAGGTCATTGATGCCGATAA class 0
CGAACTAGGCCATTGACAGGACAGTGAATAGTAA class 0
ATCTCTAGGTAACCAAGTTCAGAGAATGCCGAAC class 1
TCATACAGGTGAAGGTAACTCAGGTACGCAGTCG class 1
GCGACTGGGGCATCAGCATGTTACCATAACTTAA class 0
CCTACTGGGCCATCAGGTCATGGATATCAACGTT class 0
CCGAGTAGGTTATAGGGCATTCAGGCAACGGTGA class 0
ACTACTAGTTGAGACGAGGGCAACCGATAGGTTG class 0
ATACGAAGGTGATCGTGAGGTCGTTGATACTAAC class 0
TCAAATAGGTAATACAGGTGAAAGTCGGCATCTA class 1
ATCTGTAGGTTACATCCGGGTCATTCAGGCTATG class 1
ATCTCGAGGTAAAGTTCAGTGAAAGATCGATAGA class 0
GCTTGTAGATCGAGGTTAAGAAAGACTAAGCTAA class 0
CGGCCAAGGTCAGCAGGTCAGTGAAAGCGACGTG class 0
CCTACTGGGCCATCAGGTCATAGATATCAACGTT class 0
GCGACTGGGGCAAAGGAGGTTACCATAAGGTTGG class 0
AGAACGAGGGCAATGAGTTGACAGCACGGGTGGC class 0
CTCGTAAGGTCGGTTGAGGTGAGTATACGGATAA class 0
TCGAGTAGATTAGTCGGGGCATTCAGCCAACATA class 0
ATATGTAGGTTATCGCGTCATTCAGTTTGCGCAT class 1
CCTGCTAGGTCAATGGTCAGCTACAGCAGCTCGC class 0
CCTAGTTGGTCGGGAGGTCACACACCGGATATGA class 1
CGGACTAGGTCAAGGACAGTGAATCTCCGCACGC class 0
TCTGCTAGGTCAGTTGGTCAGCTACCGAGCTGCC class 1

---

Tested on: PPARg DBDmut IVT, anti-PPARg (DBD mutation: PPARg1 K132A/R137A, NR concentration 270 nM)
Assay: PBM binding z-score (relative to random genomic background probes); higher = stronger binding; sequences stand for … in GC…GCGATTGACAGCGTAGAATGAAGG
Rule: PBM binding z-score under -0.4 gives not met, otherwise met.

CCAGACAGGTGGAAGGTAACTCAGTCTGGTACGC not met
AATACAGGGTCACTAGGCCAGAGAAGGTACGAAT met
GCTAGTTGGTCAGTGAAAGGTCACACACCGGTCG met
TGAATGAGGGTAAAGATCAGGGAACGTGGCGTCG met
CCTACTGGGCCATTCAGGGGTCATTGATCATATG met
CCTACTGGGCCAAAGGTCACTGATTCCAATGCTC not met
CAAACTAGCTCACGAAAGGTCAAAGTCGAATGAC met
TTACCAAGGTGAGCTGAGGTTGTTGATCCAACTC met
CTCGAAAGGTCGGTCGAGGTGAGTATACGGATAA not met
ACTAGCAGGCCAAGGGTCCCTCAAGATTAGTCCG not met
TAGCCTAGGTCTTTCAGGGGCCAGTATAGAAAGC met
GGAACGAGGCCATTCGAGTTGATAGCATGGCGAT not met

---

Recorded measurements of PBM binding z-score, one per entry
System: LXRa:RXRa (NR concentration 270 nM, RXRa partner concentration 90 nM)
Assay: PBM binding z-score (relative to random genomic background probes); higher = stronger binding; sequences stand for … in GC…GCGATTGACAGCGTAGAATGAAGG
measurement_type: PBM binding z-score

ATATGTAGGTTATCGGGACATTCAGTTTGCGCAT 0.813
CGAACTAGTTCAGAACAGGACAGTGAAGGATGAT -0.165
TATACAGGGTCAACGGCCAGAGTACGAATGTCGA 5.76
CCTACTGGGCCACGAAACGTCATTGATTCAGTGA -0.675
TCTTGTATATCAACAGGAGGTTAAGAAAGATCGA 1.42
CTACCAAGCTGAACAAGGTCGTTGATTACTATTC 0.731
AGTCTAAGTTCACTAGGTAACGTAAGATTCAGCT 3.02
ACAGAGAGGTGATGAAGGTAACTCAGGCTATCAT -0.0398
CCTACTGTGCCAAGGTCATTGATCAGTCAAAGCA 3.74
CGTCAAAGTTCGAGGTAACGTAACAGAAAGCAGC 1.25
TCAAACAGGTGAAGGTAACTCAGGTACGCAGTCG 1.85
AGAATGAGGTTACCAAAGATCTGGGAAACGCTTG 2.23
